biological target: UniProtKB P08922
Sequence (P08922 28-2347): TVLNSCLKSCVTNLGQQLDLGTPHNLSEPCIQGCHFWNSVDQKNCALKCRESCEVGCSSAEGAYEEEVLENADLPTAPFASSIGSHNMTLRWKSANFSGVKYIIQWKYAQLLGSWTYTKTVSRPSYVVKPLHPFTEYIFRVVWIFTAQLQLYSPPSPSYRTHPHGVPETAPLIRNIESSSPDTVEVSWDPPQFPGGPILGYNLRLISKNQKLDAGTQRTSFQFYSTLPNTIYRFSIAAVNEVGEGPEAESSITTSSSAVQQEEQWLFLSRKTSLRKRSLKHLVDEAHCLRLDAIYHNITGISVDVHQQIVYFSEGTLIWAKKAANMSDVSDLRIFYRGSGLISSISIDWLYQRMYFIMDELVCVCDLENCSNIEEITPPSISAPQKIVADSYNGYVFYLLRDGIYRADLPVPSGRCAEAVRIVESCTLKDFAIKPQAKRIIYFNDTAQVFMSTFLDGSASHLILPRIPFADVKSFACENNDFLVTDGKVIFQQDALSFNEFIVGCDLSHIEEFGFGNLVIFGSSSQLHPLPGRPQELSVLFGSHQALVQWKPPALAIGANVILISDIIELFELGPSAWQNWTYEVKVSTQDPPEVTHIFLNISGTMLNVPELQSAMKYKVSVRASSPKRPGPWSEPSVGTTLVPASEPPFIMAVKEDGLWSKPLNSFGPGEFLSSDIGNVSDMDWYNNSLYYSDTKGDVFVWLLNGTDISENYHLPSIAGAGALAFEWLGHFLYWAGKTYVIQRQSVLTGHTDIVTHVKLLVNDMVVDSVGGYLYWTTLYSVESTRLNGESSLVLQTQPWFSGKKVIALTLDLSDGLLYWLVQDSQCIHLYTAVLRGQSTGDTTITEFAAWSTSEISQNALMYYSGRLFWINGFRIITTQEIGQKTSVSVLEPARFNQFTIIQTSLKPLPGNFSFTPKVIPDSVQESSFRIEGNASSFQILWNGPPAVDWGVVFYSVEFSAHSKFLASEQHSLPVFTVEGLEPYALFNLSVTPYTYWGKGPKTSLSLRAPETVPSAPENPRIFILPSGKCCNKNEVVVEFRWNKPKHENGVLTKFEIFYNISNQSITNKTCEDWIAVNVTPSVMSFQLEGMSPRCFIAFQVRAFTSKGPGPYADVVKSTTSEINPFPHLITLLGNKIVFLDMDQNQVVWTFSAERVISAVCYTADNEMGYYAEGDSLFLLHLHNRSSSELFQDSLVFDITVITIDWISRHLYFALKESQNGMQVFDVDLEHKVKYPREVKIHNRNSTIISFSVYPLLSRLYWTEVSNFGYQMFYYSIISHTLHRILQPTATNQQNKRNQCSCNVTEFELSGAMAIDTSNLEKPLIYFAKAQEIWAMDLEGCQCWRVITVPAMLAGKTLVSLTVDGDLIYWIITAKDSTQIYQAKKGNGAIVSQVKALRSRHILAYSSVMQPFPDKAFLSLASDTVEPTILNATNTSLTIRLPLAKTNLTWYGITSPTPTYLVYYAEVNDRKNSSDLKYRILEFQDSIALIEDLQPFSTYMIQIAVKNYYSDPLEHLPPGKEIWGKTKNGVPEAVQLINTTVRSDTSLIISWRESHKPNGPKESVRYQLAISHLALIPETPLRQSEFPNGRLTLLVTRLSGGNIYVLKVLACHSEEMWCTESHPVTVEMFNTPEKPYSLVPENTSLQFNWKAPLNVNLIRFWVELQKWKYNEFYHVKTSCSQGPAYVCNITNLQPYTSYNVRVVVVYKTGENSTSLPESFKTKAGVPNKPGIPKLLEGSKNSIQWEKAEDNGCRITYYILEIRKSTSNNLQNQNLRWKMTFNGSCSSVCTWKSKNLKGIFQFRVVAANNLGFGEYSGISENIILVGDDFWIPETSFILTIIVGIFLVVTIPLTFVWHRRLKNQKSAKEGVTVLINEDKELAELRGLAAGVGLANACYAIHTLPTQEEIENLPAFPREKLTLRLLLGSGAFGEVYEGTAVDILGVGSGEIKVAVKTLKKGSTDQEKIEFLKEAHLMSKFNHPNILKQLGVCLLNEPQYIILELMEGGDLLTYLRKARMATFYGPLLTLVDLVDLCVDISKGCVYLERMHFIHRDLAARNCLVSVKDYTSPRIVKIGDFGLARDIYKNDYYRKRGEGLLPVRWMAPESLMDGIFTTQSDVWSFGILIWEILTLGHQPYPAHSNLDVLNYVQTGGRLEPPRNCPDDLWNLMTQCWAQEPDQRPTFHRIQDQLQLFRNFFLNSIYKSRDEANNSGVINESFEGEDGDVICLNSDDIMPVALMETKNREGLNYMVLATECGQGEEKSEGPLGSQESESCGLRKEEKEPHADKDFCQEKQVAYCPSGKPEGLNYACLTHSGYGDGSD
Give IC50 for every item shown.
The figure you give is taken to be in pM; do not add the unit.

Prompt: Looking for the measured IC50 of N#Cc1nn2ccc3nc2c1C(=O)NC1(CC1)COc1ncc(F)cc1[C@H]1CCON31 [WX-001] , can you help?
Completion: 800

Prompt: Looking for the measured IC50 of CC1COc2ncc(F)cc2C2CCON2c2ccn3nc(C#N)c(c3n2)C(=O)N1 (stereo not drawn) [WX-003] , can you help?
Completion: 1600

Prompt: Looking for the measured IC50 of N#Cc1nn2ccc3nc2c1C(=O)NC1CC(C1)Oc1ncc(F)cc1C1CCON31 (stereo not drawn) [WX-002B] , can you help?
Completion: 200

* * *

assay: Cassette pharmacokinetics test in mice; assay type: in vivo, male CD-1 mice; settings: IV 0.5 mpk, cassette dosing
Everything with Apparent clearance rate Cl lower than 10 mL/kg/min is F; everything else, including exactly 10 mL/kg/min, is T.

Prompt: Answer whether Apparent clearance rate Cl of C[C@H]1CNC(=O)c2cnn3ccc(nc23)N[C@H](C)c2cc(F)ccc2O1 is greater than or equal to 10 mL/kg/min.
Completion: T

Prompt: Answer whether Apparent clearance rate Cl of N#Cc1nn2ccc3nc2c1C(=O)NC1(CC1)COc1ncc(F)cc1[C@H]1CCON31 is greater than or equal to 10 mL/kg/min.
Completion: F

Prompt: Answer whether Apparent clearance rate Cl of CN1CCN(c2ccc(C(=O)Nc3n[nH]c4ccc(Cc5cc(F)cc(F)c5)cc34)c(NC3CCOCC3)c2)CC1 is greater than or equal to 10 mL/kg/min.
Completion: F

Prompt: Answer whether Apparent clearance rate Cl of C[C@@H](Oc1cc(-c2cnn(C3CCNCC3)c2)cnc1N)c1c(Cl)ccc(F)c1Cl is greater than or equal to 10 mL/kg/min.
Completion: T

* * *

test: Cassette pharmacokinetics test in mice; type: in vivo, male CD-1 mice; settings: PO 2.5 mpk, cassette dosing, lung, 0.5 h
Label Condition met when Drug concentration in lung at 0.5 hours Lung@0.5 h < 1000 nmol/kg; otherwise Condition not met.

Prompt: Is the reported Drug concentration in lung at 0.5 hours Lung@0.5 h for C[C@H]1Oc2cc(cnc2N)-c2c(nn(C)c2C#N)CN(C)C(=O)c2ccc(F)cc21 strictly below 1000 nmol/kg?
Completion: Condition not met

Prompt: Is the reported Drug concentration in lung at 0.5 hours Lung@0.5 h for C[C@H]1CNC(=O)c2cnn3ccc(nc23)N[C@H](C)c2cc(F)ccc2O1 strictly below 1000 nmol/kg?
Completion: Condition not met

Prompt: Is the reported Drug concentration in lung at 0.5 hours Lung@0.5 h for CN1CCN(c2ccc(C(=O)Nc3n[nH]c4ccc(Cc5cc(F)cc(F)c5)cc34)c(NC3CCOCC3)c2)CC1 strictly below 1000 nmol/kg?
Completion: Condition met

Prompt: Is the reported Drug concentration in lung at 0.5 hours Lung@0.5 h for N#Cc1nn2ccc3nc2c1C(=O)NC1(CC1)COc1ncc(F)cc1[C@H]1CCON31 strictly below 1000 nmol/kg?
Completion: Condition not met

Prompt: Is the reported Drug concentration in lung at 0.5 hours Lung@0.5 h for C[C@@H](Oc1cc(-c2cnn(C3CCNCC3)c2)cnc1N)c1c(Cl)ccc(F)c1Cl strictly below 1000 nmol/kg?
Completion: Condition met

* * *

Give Tmax for every item shown.
test: Cassette pharmacokinetics test in mice; type: in vivo, male CD-1 mice; conditions: male, CD-1, mouse, plasma, 2.5 mg/kg, PO 2.5 mpk, cassette dosing, read-out: Peak time Tmax
The figure you give is taken to be in min; do not add the unit.

Prompt: Looking for the measured Tmax of C[C@H]1CNC(=O)c2cnn3ccc(nc23)N[C@H](C)c2cc(F)ccc2O1 , can you help?
Completion: 30

Prompt: Looking for the measured Tmax of N#Cc1nn2ccc3nc2c1C(=O)NC1(CC1)COc1ncc(F)cc1[C@H]1CCON31 , can you help?
Completion: 30

Prompt: Looking for the measured Tmax of C[C@H]1Oc2cc(cnc2N)-c2c(nn(C)c2C#N)CN(C)C(=O)c2ccc(F)cc21 , can you help?
Completion: 30

Prompt: Looking for the measured Tmax of C[C@@H](Oc1cc(-c2cnn(C3CCNCC3)c2)cnc1N)c1c(Cl)ccc(F)c1Cl , can you help?
Completion: 120

Prompt: Looking for the measured Tmax of CN1CCN(c2ccc(C(=O)Nc3n[nH]c4ccc(Cc5cc(F)cc(F)c5)cc34)c(NC3CCOCC3)c2)CC1 , can you help?
Completion: 120

* * *

assay: Cassette pharmacokinetics test in mice; type: in vivo, male CD-1 mice; details: male, CD-1, mouse, plasma, 2.5 mg/kg, PO 2.5 mpk vs IV 0.5 mpk, cassette dosing, read-out: Bioavailability F %
Everything with bioavailability lower than 90% is -1; everything else, including exactly 90%, is 1.

Prompt: Answer whether bioavailability of C[C@@H](Oc1cc(-c2cnn(C3CCNCC3)c2)cnc1N)c1c(Cl)ccc(F)c1Cl [Crizotinib] is greater than or equal to 90%.
Completion: -1

Prompt: Answer whether bioavailability of C[C@H]1CNC(=O)c2cnn3ccc(nc23)N[C@H](C)c2cc(F)ccc2O1 [TPX-0005, Repotrectinib] is greater than or equal to 90%.
Completion: 1

Prompt: Answer whether bioavailability of CN1CCN(c2ccc(C(=O)Nc3n[nH]c4ccc(Cc5cc(F)cc(F)c5)cc34)c(NC3CCOCC3)c2)CC1 [Entrectinib] is greater than or equal to 90%.
Completion: -1

Prompt: Answer whether bioavailability of C[C@H]1Oc2cc(cnc2N)-c2c(nn(C)c2C#N)CN(C)C(=O)c2ccc(F)cc21 [Lorlatinib] is greater than or equal to 90%.
Completion: 1

* * *

assay: Cassette pharmacokinetics test in mice; assay type: in vivo, male CD-1 mice; settings: male, CD-1, mouse, plasma, 2.5 mg/kg, PO 2.5 mpk, cassette dosing, read-out: Peak concentration Cmax
Give Cmax for every item shown.
The figure you give is taken to be in µM; do not add the unit.

Prompt: Looking for the measured Cmax of N#Cc1nn2ccc3nc2c1C(=O)NC1(CC1)COc1ncc(F)cc1[C@H]1CCON31 [WX-001] , can you help?
Completion: 5.38

Prompt: Looking for the measured Cmax of CN1CCN(c2ccc(C(=O)Nc3n[nH]c4ccc(Cc5cc(F)cc(F)c5)cc34)c(NC3CCOCC3)c2)CC1 [Entrectinib] , can you help?
Completion: 0.69

Prompt: Looking for the measured Cmax of C[C@H]1CNC(=O)c2cnn3ccc(nc23)N[C@H](C)c2cc(F)ccc2O1 [TPX-0005, Repotrectinib] , can you help?
Completion: 3.36

Prompt: Looking for the measured Cmax of C[C@H]1Oc2cc(cnc2N)-c2c(nn(C)c2C#N)CN(C)C(=O)c2ccc(F)cc21 [Lorlatinib] , can you help?
Completion: 3.23

Prompt: Looking for the measured Cmax of C[C@@H](Oc1cc(-c2cnn(C3CCNCC3)c2)cnc1N)c1c(Cl)ccc(F)c1Cl [Crizotinib] , can you help?
Completion: 0.311

* * *

assay: Cassette pharmacokinetics test in mice; format: in vivo, male CD-1 mice; conditions: male, CD-1, mouse, plasma, 0.5 mg/kg, IV 0.5 mpk, cassette dosing, read-out: Half-life T1/2 (converted)
Give half-life for every item shown.
Mention the unit after the number when you answer.

Prompt: Looking for the measured half-life of N#Cc1nn2ccc3nc2c1C(=O)NC1(CC1)COc1ncc(F)cc1[C@H]1CCON31 [WX-001] , can you help?
Completion: 1.66 h

Prompt: Looking for the measured half-life of CN1CCN(c2ccc(C(=O)Nc3n[nH]c4ccc(Cc5cc(F)cc(F)c5)cc34)c(NC3CCOCC3)c2)CC1 [Entrectinib] , can you help?
Completion: 2.52 h

Prompt: Looking for the measured half-life of C[C@@H](Oc1cc(-c2cnn(C3CCNCC3)c2)cnc1N)c1c(Cl)ccc(F)c1Cl [Crizotinib] , can you help?
Completion: 2.54 h

Prompt: Looking for the measured half-life of C[C@H]1CNC(=O)c2cnn3ccc(nc23)N[C@H](C)c2cc(F)ccc2O1 [TPX-0005, Repotrectinib] , can you help?
Completion: 4.38 h

Prompt: Looking for the measured half-life of C[C@H]1Oc2cc(cnc2N)-c2c(nn(C)c2C#N)CN(C)C(=O)c2ccc(F)cc21 [Lorlatinib] , can you help?
Completion: 2.39 h

* * *

assay: Pharmacokinetic test in mice; assay type: in vivo, male CD-1 mice; conditions: PO 3 mg/kg, read-out: Peak concentration Cmax
parameter measured: Cmax (nM)
The figure you give is taken to be in nM; do not add the unit.

Prompt: Looking for the measured Cmax of CC1COc2ncc(F)cc2C2CCON2c2ccn3nc(C#N)c(c3n2)C(=O)N1 (centres unmarked) , can you help?
Completion: 3800

Prompt: Looking for the measured Cmax of N#Cc1nn2ccc3nc2c1C(=O)NC1CC(C1)Oc1ncc(F)cc1C1CCON31 (centres unmarked) [WX-002B] , can you help?
Completion: 2170

* * *

Give IC50 for every item shown.
The figure you give is taken to be in nM; do not add the unit.

Prompt: Field: IC50 (ALK (Homo sapiens)). Entry: N#Cc1nn2ccc3nc2c1C(=O)NC1CC(C1)Oc1ncc(F)cc1C1CCON31 (centres unmarked) [WX-002B]
Completion: 25.1

Prompt: Field: IC50 (ALK (Homo sapiens)). Entry: N#Cc1nn2ccc3nc2c1C(=O)NC1(CC1)COc1ncc(F)cc1[C@H]1CCON31
Completion: 103

Every entry's value here was drawn from patent US12497412B2.
